System: CEM WT, CEM AB9228, MOLT-4, Jurkat, NALL-1, WI-L2, K562, and HL-60 cells
Assay: Cytotoxicity to various proliferating cell lines (average)
Type: cell-based, human
Conditions: Homo sapiens, average TC50 over various proliferating cell lines; read-out: TC50 (the source's name)
Collected CC50 values appear next to each entry.
reportedMetric: CC50 (µM)

[[record]]
smilesrepr = "COc1ccc2c(c1)C(=O)C(=Cc1cc(C)c(O)c(C)c1)C2"
studysystem = "CEM WT, CEM AB9228, MOLT-4, Jurkat, NALL-1, WI-L2, K562, and HL-60 cells"
reportedmetric = "CC50"
operatorsymbol = ">"
measurement = 50

[[record]]
smilesrepr = "COc1ccc(C=C2CCc3cc(OC)c(OC)cc3C2=O)cc1"
studysystem = "CEM WT, CEM AB9228, MOLT-4, Jurkat, NALL-1, WI-L2, K562, and HL-60 cells"
reportedmetric = "CC50"
operatorsymbol = ">"
measurement = 50

[[record]]
smilesrepr = "COc1cc2c(cc1OC)C(=O)C(=Cc1cccc(OC)c1OC)CC2"
studysystem = "CEM WT, CEM AB9228, MOLT-4, Jurkat, NALL-1, WI-L2, K562, and HL-60 cells"
reportedmetric = "CC50"
operatorsymbol = ">"
measurement = 50

[[record]]
smilesrepr = "COc1cc2c(c(NC(=O)C(=O)O)c1OC)C(=O)C(=Cc1cc(C)c(O)c(C)c1)C2"
studysystem = "CEM WT, CEM AB9228, MOLT-4, Jurkat, NALL-1, WI-L2, K562, and HL-60 cells"
reportedmetric = "CC50"
operatorsymbol = "="
measurement = 0.004

[[record]]
smilesrepr = "COc1cc2c(cc1OC)C(=O)C(=Cc1c(O)cc(I)cc1I)C2"
studysystem = "CEM WT, CEM AB9228, MOLT-4, Jurkat, NALL-1, WI-L2, K562, and HL-60 cells"
reportedmetric = "CC50"
operatorsymbol = "="
measurement = 18

[[record]]
smilesrepr = "O=C1C(=Cc2cccc(O)c2O)CCc2cc(O)c(O)cc21"
studysystem = "CEM WT, CEM AB9228, MOLT-4, Jurkat, NALL-1, WI-L2, K562, and HL-60 cells"
reportedmetric = "CC50"
operatorsymbol = ">"
measurement = 50

[[record]]
smilesrepr = "COc1cc2c(cc1OC)C(=O)C(=Cc1cc(F)cc(F)c1)C2"
studysystem = "CEM WT, CEM AB9228, MOLT-4, Jurkat, NALL-1, WI-L2, K562, and HL-60 cells"
reportedmetric = "CC50"
operatorsymbol = "="
measurement = 19

[[record]]
smilesrepr = "O=C1C(=Cc2cc(Cl)cc(Cl)c2)Cc2cc(O)c(O)cc21"
studysystem = "CEM WT, CEM AB9228, MOLT-4, Jurkat, NALL-1, WI-L2, K562, and HL-60 cells"
reportedmetric = "CC50"
operatorsymbol = "="
measurement = 30

[[record]]
smilesrepr = "COc1cc2c(cc1OC)C(=O)C(=Cc1cc(OC)c(O)c(OC)c1)C2"
studysystem = "CEM WT, CEM AB9228, MOLT-4, Jurkat, NALL-1, WI-L2, K562, and HL-60 cells"
reportedmetric = "CC50"
operatorsymbol = ">"
measurement = 50

[[record]]
smilesrepr = "COc1cc2c(cc1OC)C(=O)C(=Cc1cc([N+](=O)[O-])ccc1O)C2"
studysystem = "CEM WT, CEM AB9228, MOLT-4, Jurkat, NALL-1, WI-L2, K562, and HL-60 cells"
reportedmetric = "CC50"
operatorsymbol = "="
measurement = 15

[[record]]
smilesrepr = "COc1cc2c(cc1OC)C(=O)C(=Cc1cccc(Cl)c1)C2"
studysystem = "CEM WT, CEM AB9228, MOLT-4, Jurkat, NALL-1, WI-L2, K562, and HL-60 cells"
reportedmetric = "CC50"
operatorsymbol = ">"
measurement = 50

